Recorded Kd values for a group of binders are listed next.
Molecular target: SARS-CoV-2 Omicron BA.2.12.1 RBD (SARS-CoV-2 Omicron BA.2.12.1, L452Q)
Assay: BLI

Below, 4 binders whose answers are already recorded.
binder	Kd
BD56-104 (antibody, V domains shown) VH: QVQLVQSGAEVKTPGSSVKVSCKASGGTFGSHSITWVRQAPGQGLEWMGRVIPILGIPDFAESFQGRVAITADRSTSTAHMELSRLRSEDTAVYYCARDVGYSGSGSSNYFDSWGQGTLVTVSS VL: QSVLTQPPSVSGAPGQRVTISCTGSNSNIGAGYDVHWYRQLPGTAPKLLIYVNNNRPSGVPDRFSGSRSGASASLAITGLQAEDEAEYYCQSYDSSLSGSIFGGGTKLTVL	< 2.1 nM
C807 (antibody, V domains shown) VH: QVQLVQSGAEAKKPGSSVKVSCKASGGTFKSYIINWVRQAPGQGLEWMGEIIPIFGTANYAQKFQGRVTSTADESTSTAYMELSSLKSEDTAVYYCARGRGYSGYGASYYFDYWGQGTLVTVSS VL: QSVLTQPPSVSGAPGQRVTISCTGSNSNIGAGYDVHWYQQLPGTAPKLLIYANSNRPSGVPDRFSGSKSGTSASLAITGLQAEDEADYYCQSYDSGLSGSVFGGGTKLTVL	< 2.1 nM
BD56-597 (antibody, V domains shown) VH: QVQLVQSGAEVKKPGSSVKVSCKASGGTFSTYPISWVRQAPGQGVEWMGAIIPILGTTDYAQIFQGRVTITADKSTSTAYMELSSLRPEDTAVYYCARERGYSGYGAAYYFDSWGQGTLVTVSS VL: QSVLTQPPSVSGAPGQRVTISCTGSDSNIGAGYDVHWYQQLPGTAPKLLIYVNINRPSGVPDRFSGSKSATSASLAITGLQAEDEADYYCQSYDSSLSGVVFGGGTKLTVL	< 2.1 nM
C092 (antibody, V domains shown) VH: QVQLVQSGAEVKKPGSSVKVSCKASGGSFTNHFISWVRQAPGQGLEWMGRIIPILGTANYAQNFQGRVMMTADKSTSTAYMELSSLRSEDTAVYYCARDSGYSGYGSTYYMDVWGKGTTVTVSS VL: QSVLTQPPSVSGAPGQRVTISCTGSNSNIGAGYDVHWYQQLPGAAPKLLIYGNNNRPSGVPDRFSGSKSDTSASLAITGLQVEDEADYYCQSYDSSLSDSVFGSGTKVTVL	< 2.1 nM

Please fill in: Kd reported for R1-32 (antibody, V domains shown) VH: EVQLVESGAEVKKPGSSVKVSCKASGGTFSSYAISWVRQAPGQGLEWMGGIIPILGIANYAQKFQGRVTITADKSTSTAYMELSSLRSEDTAVYYCARENGYSGYGAAANFDLWGRGTLVTVSS VL: QSVLTQPPSVSGAPGQRVTISCTGSSSNIGAGYDVHWYQQLPGTAPKLLIYGNSNRPSGVPDRFSGSKSGTSASLAITGLQAEDEADYYCQSYDSSLSGSVFGGGTKLTVL = > 55 nM
